tested on: PPARg DBDmut IVT, anti-PPARg (DBD mutation: PPARg1 K132A/R137A, NR concentration 270 nM); assay: PBM binding z-score (relative to random genomic background probes); higher = stronger binding; sequences stand for … in GC…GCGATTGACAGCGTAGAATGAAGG

>  <residue_codes>
CTCGAAAGGTCGCGCTCAGGTGAGTATACCAAAC

>  <PBM binding z-score>
0.149

$$$$
>  <residue_codes>
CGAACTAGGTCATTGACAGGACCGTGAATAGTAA

>  <PBM binding z-score>
1.41

$$$$
>  <residue_codes>
AGAATGAGGTTACCAAAGAGCAGGGAAACGCTTG

>  <PBM binding z-score>
-0.0129

$$$$
>  <residue_codes>
TGAATGAGGTTATAGGATCAGGGAACGTTGCAAA

>  <PBM binding z-score>
-0.0124

$$$$
>  <residue_codes>
TCGAGTAGGTTAGTCAGGGCATTCAGCCAACATA

>  <PBM binding z-score>
-0.832

$$$$
>  <residue_codes>
CCTTACGGGTCACTGACAGGTTATAGCATTTGGA

>  <PBM binding z-score>
0.078

$$$$
>  <residue_codes>
ACAGACAGGTGAGTGAAGGTAACTGAGCTGGACG

>  <PBM binding z-score>
-0.756

$$$$
>  <residue_codes>
ATCTCTAGGTAAAACTCAGTTCAGTGAAGAACGC

>  <PBM binding z-score>
0.779

$$$$
>  <residue_codes>
CCTTACGGGTCACGACGTTATAGCACGACGAGCG

>  <PBM binding z-score>
0.177

$$$$
>  <residue_codes>
CCTGCTAGGTCATGGTCAGCTAATCTACAGTATG

>  <PBM binding z-score>
0.284

$$$$
>  <residue_codes>
GCTGGTTGGTCAGTAAAAGGTCACACACCGGTCG

>  <PBM binding z-score>
0.205

$$$$
>  <residue_codes>
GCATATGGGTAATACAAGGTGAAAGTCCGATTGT

>  <PBM binding z-score>
0.516

$$$$
>  <residue_codes>
ACTAGCGGGCCAAGTTTGGGTCACTCAAACAAAG

>  <PBM binding z-score>
-0.789

$$$$
>  <residue_codes>
TCATATAGGTAAATGCCAGGTGAAAGTCCGATCT

>  <PBM binding z-score>
0.542

$$$$
>  <residue_codes>
AGTCAAATTTCAGGACGAGGTAACGTAAAGCACG

>  <PBM binding z-score>
0.285

$$$$
>  <residue_codes>
CCTACTGGGCCAAAAAGGTCATAGATGCCGATAA

>  <PBM binding z-score>
-0.44

$$$$
>  <residue_codes>
ACTAGTTGGTCAGCTCAGGTCACACACAATTCGG

>  <PBM binding z-score>
1.3

$$$$
>  <residue_codes>
ATCTCTAGGTTACCAAGTTCAGTGAATGCCGAAC

>  <PBM binding z-score>
1.33

$$$$
>  <residue_codes>
CGTCCAAGGTCAGAGAGGTCAGTGATTGCCGAGT

>  <PBM binding z-score>
-0.653

$$$$
>  <residue_codes>
AGTCAAAGTTCAGGACGAGGTAACATAAAGCACG

>  <PBM binding z-score>
0.12

$$$$
>  <residue_codes>
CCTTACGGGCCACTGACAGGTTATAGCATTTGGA

>  <PBM binding z-score>
-0.329

$$$$
>  <residue_codes>
GCTGCTAGGTCAGGTTGGTCAGCCAACGGGTACG

>  <PBM binding z-score>
-1.25

$$$$
>  <residue_codes>
ATCTCTCGGTAAAGATAGTTCAGTGAATGCAAAT

>  <PBM binding z-score>
0.624

$$$$
>  <residue_codes>
GCGACTGGGGCATCAGCTGGTTACCATAACTTAA

>  <PBM binding z-score>
-0.691

$$$$
>  <residue_codes>
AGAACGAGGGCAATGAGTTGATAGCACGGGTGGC

>  <PBM binding z-score>
0.0167

$$$$
>  <residue_codes>
GGAACGAGGGCAACTTGATAGCAGAGTTTGATGG

>  <PBM binding z-score>
0.0207

$$$$
